Quick list: self-cleavage per entry.
B1: CPEB3 Ribozyme (parent)
chain: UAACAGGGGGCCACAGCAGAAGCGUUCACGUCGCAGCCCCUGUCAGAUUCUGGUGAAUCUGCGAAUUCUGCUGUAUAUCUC

variants of: B1; assay: self-cleavage, relative activity (ratio to wild type); higher = more cleavage; in vitro, sequencing
Number only, no unit.

Solved cases below.
Input line: Look at this variant and give its reported self-cleavage. G46A G63C
Output line: 0.62

Input line: Look at this variant and give its reported self-cleavage. U1C A15C
Output line: 0.62

Input line: Look at this variant and give its reported self-cleavage. G16C U26A
Output line: 0.3

Input line: Look at this variant and give its reported self-cleavage. U25A C68A
Output line: 0.19

Input line: Look at this variant and give its reported self-cleavage. A21C A47G
Output line: 0.3

---
Input line: Look at this variant and give its reported self-cleavage. A20G C59G
Output line: 0.45

Input line: Look at this variant and give its reported self-cleavage. U26C C44A
Output line: 0.09

Input line: Look at this variant and give its reported self-cleavage. G36A U76G
Output line: 0.4

Input line: Look at this variant and give its reported self-cleavage. C32A U66C
Output line: 0.16

Input line: Look at this variant and give its reported self-cleavage. A18G A65G
Output line: 0.34

Input line: Look at this variant and give its reported self-cleavage. U60C A75U
Output line: 0.57
